# subjectOfTest: T1, extracellular domain of human BCMA (human, UniProt Q02223 1-54)
# T1 construct: amine-linked to Octet AR2G tips; also called hsBCMA; BCMA (human)
# T1 sequence: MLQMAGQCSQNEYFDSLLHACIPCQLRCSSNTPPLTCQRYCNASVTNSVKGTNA
# procedureSummary: Octet BLI; Fab 200 nM
pKd: −log10 of the molar value.
Listing: pKd of selected binders

binder	pKd
AB200-R1H32-R2Vk23 (Fab, V domains shown) VH: QVQLVQSGAEVKKPGSSVKVSCKASGGTFSNYWMHWVRQAPGQGLEWMGATYRSHSDTYYNQKFKSRVTITADKSTSTAYMELSSLRSEDTAVYYCARGAIYHGYDVIDNWGQGTLVTVSS VL: DIQMTQSPSSLSASVGDRVTITCRASQSISSYLNWYQQKPGKAPKLLIYATSNLQSGVPSRFSGSGSGTDFTLTISSLQPEDFATYYCQQFRKIPWTFGQGTKLEIKR	8.95
AB200-R1H32-R2Vk7 (Fab, V domains shown) VH: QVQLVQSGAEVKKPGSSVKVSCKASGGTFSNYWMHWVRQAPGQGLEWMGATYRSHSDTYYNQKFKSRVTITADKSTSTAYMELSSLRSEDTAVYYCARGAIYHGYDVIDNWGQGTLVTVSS VL: DIQMTQSPSSLSASVGDRVTITCRASQSISSYINWYQQKPGKAPKLLIYATSNIQSGVPSRFSGSGSGTDFTLTISSLQPEDFATYYCQQFRKLPWSFGQGTKLEIKR	8.90
AB200-R1H32-R2Vk46 (Fab, V domains shown) VH: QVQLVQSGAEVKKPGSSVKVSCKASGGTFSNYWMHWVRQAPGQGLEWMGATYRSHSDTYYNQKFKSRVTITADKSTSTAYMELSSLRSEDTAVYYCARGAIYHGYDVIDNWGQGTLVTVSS VL: DIQMTQSPSSLSASVGDRVTITCRASQSISSYINWYQQKPGKAPKLLIYATSNLQIGVPSRFSGSGSGTDFTLTISSLQPEDFATYYCQQFRRLPWTFGQGTKLEIKR	9.11
AB200-R1H32-R2Vk8 (Fab, V domains shown) VH: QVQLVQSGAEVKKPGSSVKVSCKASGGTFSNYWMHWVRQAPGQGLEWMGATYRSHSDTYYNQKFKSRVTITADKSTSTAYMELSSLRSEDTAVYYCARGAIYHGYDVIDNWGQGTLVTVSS VL: DIQMTQSPSSLSASVGDRVTITCRASQSISSYINWYQQKPGKAPKLLIYATSNLQIGVPSRFSGSGSGTDFTLTISSLQPEDFATYYCQQFRKLPWSFGQGTKLEIKR	9.04
AB200-R1H32-R2Vk41 (Fab, V domains shown) VH: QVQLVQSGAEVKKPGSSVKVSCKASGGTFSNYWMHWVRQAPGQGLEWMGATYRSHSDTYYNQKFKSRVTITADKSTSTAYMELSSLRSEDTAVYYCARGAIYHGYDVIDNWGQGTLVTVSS VL: DIQMTQSPSSLSASVGDRVTITCRASQSISSYINWYQQKPGKAPKLLIYATSNIQSGVPSRFSGSGSGTDFTLTISSLQPEDFATYYCQQFRRLPWTFGQGTKLEIKR	8.93
AB200-R1H32-R2Vk24 (Fab, V domains shown) VH: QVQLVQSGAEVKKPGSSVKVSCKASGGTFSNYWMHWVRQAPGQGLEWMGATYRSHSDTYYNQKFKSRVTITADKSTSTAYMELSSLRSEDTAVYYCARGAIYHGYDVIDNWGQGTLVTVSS VL: DIQMTQSPSSLSASVGDRVTITCRASQSISSYLNWYQQKPGKAPKLLIYATSNIQSGVPSRFSGSGSGTDFTLTISSLQPEDFATYYCQQYRRLPWSFGQGTKLEIKR	8.98
AB200-R1H32-R2Vk36 (Fab, V domains shown) VH: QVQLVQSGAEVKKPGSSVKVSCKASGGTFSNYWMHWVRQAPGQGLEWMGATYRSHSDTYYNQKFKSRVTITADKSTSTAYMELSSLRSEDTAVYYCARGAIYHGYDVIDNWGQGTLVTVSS VL: DIQMTQSPSSLSASVGDRVTITCRASQSISSYINWYQQKPGKAPKLLIYATSNLQSGVPSRFSGSGSGTDFTLTISSLQPEDFATYYCQQFRRLPWTFGQGTKLEIKR	9.08
AB200-R1H32-R2Vk4 (Fab, V domains shown) VH: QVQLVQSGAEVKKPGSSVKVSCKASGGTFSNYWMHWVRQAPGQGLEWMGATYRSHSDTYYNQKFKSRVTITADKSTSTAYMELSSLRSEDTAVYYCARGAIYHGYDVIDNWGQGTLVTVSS VL: DIQMTQSPSSLSASVGDRVTITCRASQSISSYLNWYQQKPGKAPKLLIYATSNIQSGVPSRFSGSGSGTDFTLTISSLQPEDFATYYCQQFRKLPWSFGQGTKLEIKR	8.94
